target: METTL3/14 (Homo sapiens, UniProt Q86U44); construct: The enzyme used was full-length his-tagged METTL3; His; made in house; experiment: METTL3/14 methyltransferase assay (METTL3_14 RFMS, RapidFire mass spectrometry); type: biochemical; details: 5 nM METTL3/14, 0.2 μM RNA substrate, 0.5 μM SAM; lower limit of the assay IC50=5 nM; Compounds 266-351; read-out: METTL3_14 RFMS IC50;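 note: recombinant His-tagged METTL3 with FLAG-tagged METTL14 from baculovirus, SAH product quantified by mass spectrometry against isotope-labelled internal standards, 60 min at room temperature, scaled between no-RNA and DMSO-only wells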
Sequence (Q86U44 whole entry): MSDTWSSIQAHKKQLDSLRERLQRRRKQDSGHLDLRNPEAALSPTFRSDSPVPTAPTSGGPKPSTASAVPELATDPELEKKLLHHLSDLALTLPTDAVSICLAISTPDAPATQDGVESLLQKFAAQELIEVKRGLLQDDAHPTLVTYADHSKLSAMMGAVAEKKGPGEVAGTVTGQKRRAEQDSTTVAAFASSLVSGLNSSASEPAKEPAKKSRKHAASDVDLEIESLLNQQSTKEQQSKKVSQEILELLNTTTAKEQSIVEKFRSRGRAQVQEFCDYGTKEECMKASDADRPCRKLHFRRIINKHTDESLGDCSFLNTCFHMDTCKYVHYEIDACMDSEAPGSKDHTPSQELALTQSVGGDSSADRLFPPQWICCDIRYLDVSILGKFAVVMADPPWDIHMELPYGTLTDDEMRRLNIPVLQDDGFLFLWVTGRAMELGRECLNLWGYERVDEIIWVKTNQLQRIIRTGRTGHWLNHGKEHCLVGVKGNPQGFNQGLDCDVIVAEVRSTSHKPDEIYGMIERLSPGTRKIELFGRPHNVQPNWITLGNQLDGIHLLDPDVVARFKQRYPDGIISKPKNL
Sequence (Q9HCE5 whole entry partner): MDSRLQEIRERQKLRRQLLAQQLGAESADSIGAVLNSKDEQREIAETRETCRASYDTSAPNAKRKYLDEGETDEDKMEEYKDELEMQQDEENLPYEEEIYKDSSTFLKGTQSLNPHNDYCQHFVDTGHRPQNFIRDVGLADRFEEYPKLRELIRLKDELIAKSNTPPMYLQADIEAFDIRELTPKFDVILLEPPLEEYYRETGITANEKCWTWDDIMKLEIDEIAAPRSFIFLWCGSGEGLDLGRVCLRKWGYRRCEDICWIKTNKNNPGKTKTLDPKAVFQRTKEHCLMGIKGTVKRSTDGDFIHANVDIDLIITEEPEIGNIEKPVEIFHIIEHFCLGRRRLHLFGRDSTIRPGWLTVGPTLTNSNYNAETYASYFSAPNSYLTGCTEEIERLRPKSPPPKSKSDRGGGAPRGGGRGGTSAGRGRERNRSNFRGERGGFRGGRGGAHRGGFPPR
pIC50: −log10 of the molar value.
Label satisfied when pIC50 is at or above 7; otherwise label not satisfied.

# compound, measured on, assigned label
measured = [
    ("O=C(NCc1cn2cc(C(Cc3ccccc3)NCC3CCC3)ccc2n1)c1cc(=O)n2ccccc2n1 (centres unmarked)", "METTL3/14 (Homo sapiens, UniProt Q86U44)", "satisfied"),
    ("FC1(F)CC(CNCc2ccc3nc(Cc4cn(-c5cccc6[nH]ncc56)nn4)cn3c2)C1", "METTL3/14 (Homo sapiens, UniProt Q86U44)", "satisfied"),
    ("O=C(c1cc(-c2cn(Cc3cn4cc(CNCC5CCC5)ccc4n3)nn2)c2cn[nH]c2c1)N1CCOCC1", "METTL3/14 (Homo sapiens, UniProt Q86U44)", "not satisfied"),
    ("O=C(NCc1cn2cc(CNCC3CCC3)ccc2n1)c1cccc2[nH]ncc12", "METTL3/14 (Homo sapiens, UniProt Q86U44)", "satisfied"),
    ("O=C(NCc1cn2cc(CN3CC4CCC3C4)ccc2n1)c1cc(=O)n2ccccc2n1 (centres unmarked)", "METTL3/14 (Homo sapiens, UniProt Q86U44)", "satisfied"),
    ("N#CCC(NCC1CCC1)c1ccc2nc(CNC(=O)c3cc(=O)n4ccccc4n3)cn2c1 (centres unmarked)", "METTL3/14 (Homo sapiens, UniProt Q86U44)", "not satisfied"),
    ("O=C(NCc1cn2cc(CNCCC3CCC3)ccc2n1)c1cc(=O)n2ccccc2n1", "METTL3/14 (Homo sapiens, UniProt Q86U44)", "satisfied"),
    ("NC(=O)c1cc(-c2cn(Cc3cn4cc(CNCC5CCC5)ccc4n3)nn2)c2cn[nH]c2c1", "METTL3/14 (Homo sapiens, UniProt Q86U44)", "satisfied"),
]
